Protein target, amino acids: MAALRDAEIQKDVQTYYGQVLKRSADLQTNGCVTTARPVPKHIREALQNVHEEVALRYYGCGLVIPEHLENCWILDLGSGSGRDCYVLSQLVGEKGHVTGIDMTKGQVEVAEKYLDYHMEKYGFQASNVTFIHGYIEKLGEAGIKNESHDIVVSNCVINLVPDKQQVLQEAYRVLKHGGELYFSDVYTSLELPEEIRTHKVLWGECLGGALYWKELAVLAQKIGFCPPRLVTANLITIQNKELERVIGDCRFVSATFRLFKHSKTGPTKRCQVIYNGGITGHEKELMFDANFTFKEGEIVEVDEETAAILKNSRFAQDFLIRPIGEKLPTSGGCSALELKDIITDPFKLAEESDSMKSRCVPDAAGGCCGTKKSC
pIC50: −log10 of the molar value.
Measured Metric: pIC50

Specify measured pIC50 for Cn1c(N)c(C#N)c2cc(OCc3cccc(NC(=O)C(N)CO)c3)ccc21 (stereo not given) .
5.54

Report pIC50 for `Cn1c(N)c(C#N)c2cc(Oc3ccc(NC(=O)CN)cc3)ccc21`
5.48

(a) N#Cc1c(N)n(CC(N)=O)c2ccc(Oc3ccc(NC(=O)CN)cc3)cc12
(b) N#Cc1c(N)[nH]c2ccc(Oc3ccc(NC(=O)[C@@H](N)CO)cc3)cc12
Between a and b , which one shows the smaller pIC50 number? Please respond with the label that marks your chosen entry.
a

----------
Target: UniProt:O96028
Sequence (O96028 whole entry): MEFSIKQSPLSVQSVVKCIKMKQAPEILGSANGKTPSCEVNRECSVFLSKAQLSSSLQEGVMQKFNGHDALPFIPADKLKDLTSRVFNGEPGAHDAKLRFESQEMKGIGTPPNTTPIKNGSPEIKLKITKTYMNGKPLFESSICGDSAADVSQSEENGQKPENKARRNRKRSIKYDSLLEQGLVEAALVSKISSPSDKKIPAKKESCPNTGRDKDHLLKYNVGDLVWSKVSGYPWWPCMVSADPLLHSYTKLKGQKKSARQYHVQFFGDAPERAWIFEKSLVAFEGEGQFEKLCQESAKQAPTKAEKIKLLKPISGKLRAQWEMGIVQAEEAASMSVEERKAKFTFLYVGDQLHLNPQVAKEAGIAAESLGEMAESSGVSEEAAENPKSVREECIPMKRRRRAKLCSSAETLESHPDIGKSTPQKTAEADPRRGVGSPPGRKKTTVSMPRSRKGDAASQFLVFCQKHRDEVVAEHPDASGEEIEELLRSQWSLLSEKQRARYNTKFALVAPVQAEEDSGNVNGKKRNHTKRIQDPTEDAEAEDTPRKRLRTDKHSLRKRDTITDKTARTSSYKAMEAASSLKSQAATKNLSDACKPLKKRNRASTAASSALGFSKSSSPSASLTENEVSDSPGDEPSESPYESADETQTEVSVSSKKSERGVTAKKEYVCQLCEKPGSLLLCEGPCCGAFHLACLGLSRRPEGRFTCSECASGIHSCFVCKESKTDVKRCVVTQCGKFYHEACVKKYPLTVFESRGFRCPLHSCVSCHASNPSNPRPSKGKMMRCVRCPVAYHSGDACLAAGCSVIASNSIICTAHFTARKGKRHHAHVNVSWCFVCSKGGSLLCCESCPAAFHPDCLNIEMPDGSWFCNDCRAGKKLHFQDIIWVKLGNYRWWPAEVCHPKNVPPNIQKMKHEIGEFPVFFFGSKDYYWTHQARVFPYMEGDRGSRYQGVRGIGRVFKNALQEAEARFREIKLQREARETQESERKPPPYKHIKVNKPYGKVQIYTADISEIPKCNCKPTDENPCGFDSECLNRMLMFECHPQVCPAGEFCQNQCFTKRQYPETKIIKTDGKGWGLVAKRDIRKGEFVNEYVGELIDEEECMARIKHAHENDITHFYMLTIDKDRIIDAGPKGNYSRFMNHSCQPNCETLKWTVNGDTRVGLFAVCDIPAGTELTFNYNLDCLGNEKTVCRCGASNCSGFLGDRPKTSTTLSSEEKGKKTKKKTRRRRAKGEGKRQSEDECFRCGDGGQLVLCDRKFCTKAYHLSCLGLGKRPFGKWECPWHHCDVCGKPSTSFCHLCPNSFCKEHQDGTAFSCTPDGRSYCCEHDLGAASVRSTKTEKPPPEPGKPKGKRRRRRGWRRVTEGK
pIC50: −log10 of the molar value.
Measured Metric: pIC50

# return recorded pIC50 for entry `N#Cc1c(N)[nH]c2ccc(Oc3ccc(NC(=O)[C@H](N)CO)cc3)cc12`
5.04

(a) N#Cc1c(N)n(CC2CC2)c2ccc(Oc3ccc(NC(=O)CN)cc3)cc12
(b) CCn1c(N)c(C#N)c2cc(Oc3ccc(NC(=O)CN)cc3)ccc21
(c) N#Cc1c(N)[nH]c2ccc(OCc3ccccc3)cc12
Order these by pIC50, descending, and give the full ranking. Could you list the labels in the order requested?
a, b, c

Values were extracted from ChEMBL document CHEMBL4265895.
